# inhibition annotations
- assay target: PEG-3 (UniProt Q6IN02)
- Sequence (Q6IN02 whole entry, looked up): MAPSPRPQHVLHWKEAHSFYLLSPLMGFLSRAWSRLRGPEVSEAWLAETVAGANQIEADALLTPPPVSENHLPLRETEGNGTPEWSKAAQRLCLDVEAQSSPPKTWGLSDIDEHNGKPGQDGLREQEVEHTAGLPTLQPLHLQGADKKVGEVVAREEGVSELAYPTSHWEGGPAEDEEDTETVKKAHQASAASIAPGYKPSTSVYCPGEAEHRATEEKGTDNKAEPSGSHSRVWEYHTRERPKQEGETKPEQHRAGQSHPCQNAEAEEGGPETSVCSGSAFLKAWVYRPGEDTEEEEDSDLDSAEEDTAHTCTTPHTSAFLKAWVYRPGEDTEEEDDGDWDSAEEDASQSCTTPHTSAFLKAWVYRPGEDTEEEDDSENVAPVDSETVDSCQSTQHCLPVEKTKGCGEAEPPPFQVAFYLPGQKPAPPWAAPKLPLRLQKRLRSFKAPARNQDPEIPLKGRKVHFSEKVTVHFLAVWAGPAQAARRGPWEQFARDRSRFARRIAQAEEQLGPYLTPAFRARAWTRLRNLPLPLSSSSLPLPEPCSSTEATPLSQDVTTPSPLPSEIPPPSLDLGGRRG
- assay explanation: Peg3 promoter luciferase inhibitors, potency, dose response, cell-based, HeLa, CREF/GAPDH counter-screen panel (AID 624167)
- setup conditions: CREF/GAPDH counter-screens; HeLa PEG-Prom luciferase reporter, overnight, run 2, dose range 1, at 100 µM (top of the series) unless noted
Answer format: numeric, % implied, no suffix.

Check out these entries, answers already filled in.
COc1cccc(-c2sc3ccccc3c2-c2ccc(OCCN(C)C)cc2)c1 | 98.6
CCc1ccc(C(=O)Nc2nc3ccccc3[nH]2)cc1 | 97.2
CN(C)CCNC(=O)/C(=C/c1ccc(-c2ccc(Cl)cc2)o1)NC(=O)c1ccccc1 | 98.6
O=C1N[C@@H](c2ccccc2)COC(=O)[C@@H](Cc2ccc(F)cc2)CC/C=C/C[C@H]1CC(=O)N(CCO)Cc1ccccc1 | 97.4
NC(N)=N/N=C/c1ccc(Cl)cc1Cl | 99.1

INPUT: Given the entry CCN1CCCC1CN(Cc1cc2ccc(C)cc2[nH]c1=O)C(=S)Nc1ccc(OC)cc1 (stereo not drawn) , report its measured inhibition.
OUTPUT: 99.5

INPUT: Next entry: "COc1ccc(C(=O)Nc2cccc(C(=O)N/N=C/c3ccc(OC)cc3OC)c2)cc1"
OUTPUT: 93.1

INPUT: Try this compound next: CN(C(=O)COC(=O)/C=C/c1cccc([N+](=O)[O-])c1)C1CCS(=O)(=O)C1 (stereo not drawn)
OUTPUT: 44.7

INPUT: How about CCOC(=O)c1c(NC(C)=O)sc2c(OCC(O)CN(CC)CC)c(Br)ccc12 (stereo not drawn) ?
OUTPUT: 98.6

INPUT: What do we get for CCCCCCCNC(=O)C1(CC2CC(c3ccccc3)=NO2)CCNCC1 (stereo not drawn) ?
OUTPUT: 98.7

INPUT: Entry "O=c1cc(-c2ccc(O)cc2)oc2ccc3ccccc3c12" please
OUTPUT: 101

INPUT: Follow-up entry: "CCOc1ccc(Nc2c3ccccc3nc3ccccc23)cc1"
OUTPUT: 101

INPUT: Next up: "CN(C)CCCN(C(=O)c1ccc(S(=O)(=O)N2CCc3ccccc3C2)cc1)c1nc2ccc(F)cc2s1"
OUTPUT: 98.9

INPUT: // same read-out, input: "CN(C)c1ccc(Nc2nc(N)c3ccccc3n2)cc1"
OUTPUT: 99.2

###

Reported activity values for the following molecules.
- assay target: Tumor necrosis factor receptor superfamily member 10B (Homo sapiens) (UniProt O14763)
- Sequence (O14763 whole entry, looked up): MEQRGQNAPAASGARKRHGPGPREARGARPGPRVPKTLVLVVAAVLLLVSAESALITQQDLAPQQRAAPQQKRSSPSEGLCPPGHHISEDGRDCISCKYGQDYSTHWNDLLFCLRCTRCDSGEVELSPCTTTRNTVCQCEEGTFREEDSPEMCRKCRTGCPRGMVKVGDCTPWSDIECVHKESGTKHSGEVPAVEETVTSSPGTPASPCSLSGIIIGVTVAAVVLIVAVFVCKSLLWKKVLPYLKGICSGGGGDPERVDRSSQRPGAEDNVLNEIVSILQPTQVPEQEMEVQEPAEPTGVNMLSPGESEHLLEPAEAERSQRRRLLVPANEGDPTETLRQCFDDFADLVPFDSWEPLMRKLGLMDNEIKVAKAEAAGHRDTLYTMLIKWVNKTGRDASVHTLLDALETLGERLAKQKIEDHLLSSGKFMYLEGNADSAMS
- assay explanation: caspase-8 TRAIL sensitization, hit retest, confirmation, cell-based, NB7+caspase-8, with/without TRAIL, luminescence panel (AID 651596)
- setup conditions: NB7 neuroblastoma + caspase-8, TRAIL sensitization, luminescence viability, with TRAIL, mean of runs, at 10 µM, stronger effect = higher value
State the answer as a number, implicitly in %.

COc1ccc(CC(N)c2csc(NC(=O)c3cc(C(C)(C)C)nn3Cc3ccccc3)n2)cc1 (stereo not drawn) | 52.9
C=CCn1c(C)cc(C(=O)COC(=O)c2n[nH]c(=O)c3ccccc23)c1C | 74.4
Clc1ccc(-c2nc3n(n2)Cc2ccccc2-3)cc1 | 65.8
O=C(CCl)N(c1ccccc1)c1ccccc1 | 99.2

INPUT: Give the measured activity of "CSc1nc(N)n2nc(-c3ccc(Cl)cc3)cc2n1" .
OUTPUT: 63.9

INPUT: Now give it for "N/C(=N\OC(=O)c1ccccc1)c1ccn[nH]1" too.
OUTPUT: 68.7

INPUT: What do you get for "NNc1nc(-c2ccccc2)nc2sc3c(c12)CCCC3" ?
OUTPUT: 57.2

INPUT: What would you report for "O=[N+]([O-])c1ccc(/C=C/c2ccc3ccccc3n2)cc1" ?
OUTPUT: 70.2

INPUT: Entry "O=C(Nc1nc(-c2ccccn2)cs1)C12CC3CC(CC(O)(C3)C1)C2" please
OUTPUT: 66.8

###

- assay target: Tumor necrosis factor receptor superfamily member 10B (Homo sapiens) (UniProt O14763)
- assay explanation: caspase-8 TRAIL sensitization, hit retest, confirmation, cell-based, NB7+caspase-8, with/without TRAIL, luminescence panel (AID 651596)
- setup conditions: NB7 neuroblastoma + caspase-8, TRAIL sensitization, luminescence viability, with TRAIL, mean of runs, at 10 µM, stronger effect = higher value
observable: activity (%)
Give the value in % but do not write % after it.

// below: answered molecules
COc1ccc(Oc2c(Cl)cnn(-c3ccc(F)cc3)c2=O)cc1 | 98
CCOC(=O)c1c(C)[nH]c(C(=O)OCC(=O)Nc2sccc2C(N)=O)c1C | 69.8
O=C(Nc1ccc2ccccc2c1)c1ccc(Cl)cc1 | 63.1
COc1ccc(-c2cc(C(=O)OCC(=O)N3CCOCC3)c3ccccc3n2)cc1 | 36.6

INPUT: # activity lookup, item Cc1cc(NC(=O)c2cc3n(n2)C(C(F)(F)F)CC(c2ccco2)N3)no1 (configuration not stated)
OUTPUT: -11.1

INPUT: Cool, now "O=C(Nc1cccc(Oc2ccc(C(=O)O)c(C(=O)O)c2)c1)c1ccc(-c2ccccc2)cc1"
OUTPUT: 60.4

INPUT: Would you kindly repeat that for "c1ccc2nc3c(nc2c1)[nH]c1ccccc13" ?
OUTPUT: 45.7

INPUT: Try "CCOc1cc(/C=N/N=C(N)N)ccc1OCc1ccc(Cl)cc1" next.
OUTPUT: 70

INPUT: For "O=C(Nc1nc(-c2nc3ccccc3s2)cs1)C1CC1" then?
OUTPUT: 59

INPUT: Quick one: "CCOC(=O)c1sc2nc(-c3ccccc3)ccc2c1N"
OUTPUT: 76.1

INPUT: Then what about the molecule "CC(C)(C)OC(=O)NCCCC[C@H](NC(=O)c1[nH]cnc1C(=O)Nc1ccccc1)C(=O)OC(C)(C)C" ?
OUTPUT: 74.2

INPUT: Would you kindly repeat that for "CCOc1cccc2sc(N(CCCN(C)C)C(=O)c3ccc(S(=O)(=O)N4CCc5ccccc5C4)cc3)nc12" ?
OUTPUT: 55.9

INPUT: Entry to check: "CN(C)C=Nc1ccc2nc3c(cc2c1)[nH]c1ccccc13"
OUTPUT: 76.7

###

Listing: inhibition of selected compounds
- assay target: Sentrin-specific protease 7 (Homo sapiens) (UniProt Q9BQF6)
- Sequence (Q9BQF6 706-1050 limits assumed): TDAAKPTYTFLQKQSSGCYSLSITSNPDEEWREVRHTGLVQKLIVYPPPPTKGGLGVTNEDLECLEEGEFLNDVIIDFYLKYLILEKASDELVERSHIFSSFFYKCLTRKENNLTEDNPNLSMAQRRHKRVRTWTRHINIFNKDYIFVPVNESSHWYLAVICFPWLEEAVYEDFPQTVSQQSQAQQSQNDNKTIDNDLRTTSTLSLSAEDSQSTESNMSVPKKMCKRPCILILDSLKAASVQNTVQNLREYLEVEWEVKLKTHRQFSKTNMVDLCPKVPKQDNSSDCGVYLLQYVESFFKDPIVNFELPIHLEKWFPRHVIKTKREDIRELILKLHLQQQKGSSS
- assay explanation: SENP7 protease inhibitors, retest, confirmation, biochemical, luminescence, single concentration (AID 488917)
- setup conditions: recombinant SENP7, Z-RLRGG-aminoluciferin luminescence, 40 min; at 12.5 µM; stronger effect = higher value
The other results are listed elsewhere or left out.
State the answer as a number, implicitly in %.

These solved cases illustrate the format of a correct answer.
c1ccc(-c2cc(-c3ccccc3)[nH]n2)cc1 | 85.8
O=C(Nc1ccccc1C(=O)Nc1ccncc1)c1ccc([N+](=O)[O-])cc1 | 85.4

INPUT: What value of measured inhibition is listed for "c1ccc(Nc2nc(-c3ccncc3)cs2)nc1" ?
OUTPUT: 97.3

INPUT: Next record, please: O=C1C(=O)N(CCCN2CCOCC2)C(c2ccc([N+](=O)[O-])cc2)/C1=C(\O)c1ccc2c(c1)OCCO2 (stereo unspecified)
OUTPUT: -9

INPUT: Okay, and "Cc1ccc(-c2nc3ccccc3[nH]2)cc1N" ?
OUTPUT: 102

INPUT: Cool, now "O=C(Nc1ccc(C(=O)O)c(O)c1)c1ccccc1"
OUTPUT: 94.9

INPUT: Moving on to "O=C(Nc1ccc(NC(=O)c2ccco2)c(Cl)c1)c1cccc([N+](=O)[O-])c1"
OUTPUT: -6.7

INPUT: Next up: "Cc1cc(C(=O)Nc2nnc(C3CC3)s2)c(C)s1"
OUTPUT: 94.1

INPUT: Repeat with "COc1cccc(C(=O)Nc2ccc(N3CCCC3)cc2)c1"
OUTPUT: 104

INPUT: Now consider "O=C(NCc1ccccn1)c1c(O)c2c([nH]c1=O)CCCC2" and answer again.
OUTPUT: -5.1

INPUT: Next compound: "COc1ccc(C(=O)Nc2ccc(C3(C#N)CCCC3)cc2)cc1OC"
OUTPUT: 101

###

- assay target: Tumor necrosis factor receptor superfamily member 10B (Homo sapiens)
- assay explanation: TRAIL sensitizers in caspase-8 expressing neuroblastoma cells, dose response, NB7 cells plus caspase-8, luminescence, panel (AID 652002)
- setup conditions: NB7 neuroblastoma +caspase-8, TRAIL sensitization, luminescence viability, NB7+Caspase-8, with TRAIL, run 1; at 12.5 µM (top of the series)
observable: activity, % sensitization (%)
Value expressed in %; do not type the unit.

Cc1nn(-c2ccccc2)c2nc(N)c(C#N)c(-c3ccc(F)cc3)c12 | -8.21
CCCCc1nc(NCCN)c(C#N)c2c1CSC(C)(C)C2 | -8.34

Now look at this entry.
INPUT: Suppose we examine the compound "CCN(CC)c1ccc(NC(=O)Nc2ccccc2)cc1" ; what activity, % sensitization value has been reported?
OUTPUT: 37.6
